- Tested on: panel of cancer cell lines
- protocol-description: Cell viability (CellTiter-Glo) dose-response across cancer cell line panel;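 also: after 72 h compound incubation with CellTiter-Glo ATP readout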
- Assay type: cell-based, human
- condition-summary: Homo sapiens, HCC1171, HCC-1171
pEC50: −log10 of the molar value.

{"compound": "CC(C)C[C@H](NC(=O)[C@H](Cc1ccccc1)NC(=O)c1cnccn1)B(O)O", "system-tested": "panel of cancer cell lines", "pEC50": 7.57}

---

- Test system: panel of cancer cell lines
- protocol-description: Cell viability (CellTiter-Glo) dose-response across cancer cell line panel;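 also: after 72 h compound incubation with CellTiter-Glo ATP readout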
- Assay type: cell-based, human
- condition-summary: Homo sapiens, TCC-PAN2 cells

{"compound": "COCc1ccccc1NCc1ccc([C@@H]2[C@H](O)CCCc3cncn32)c(-c2ccccc2Cl)c1 [CSN5i-2e]", "EC50 / µM": 28.9}

---

- System: panel of cancer cell lines
- protocol-description: Cell viability (CellTiter-Glo) dose-response across cancer cell line panel;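 also: after 72 h compound incubation with CellTiter-Glo ATP readout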
- Format: cell-based, human
- condition-summary: Homo sapiens, KYSE-180, KYSE-180 cells
pEC50: −log10 of the molar value.

{"compound": "COCc1ccccc1NCc1ccc([C@@H]2[C@H](O)CCCc3cncn32)c(-c2ccccc2Cl)c1", "pEC50": 4.85}

---

- Test system: panel of cancer cell lines
- protocol-description: Cell viability (CellTiter-Glo) dose-response across cancer cell line panel;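 also: after 72 h compound incubation with CellTiter-Glo ATP readout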
- Format: cell-based, human
- condition-summary: Homo sapiens, SNU668, SNU-668
- Experimental: Next, we explored the effect of CSN5 inhibition on the viability of cancer cells. […] A standardized CellTiter-Glo Assay (Promega #G7570) based on the quantification of ATP was applied according to the manufacturer's protocol to measure the amount of viable cells in culture. […] EC50 values were calculated from the plot of percentage of inhibition versus inhibitor concentration using the nonlinear regression analysis software Origin 7.5SR6 (OriginLab Corp.).
pEC50: −log10 of the molar value.
result-type: pEC50

{"compound": "NS(=O)(=O)OC[C@@H]1C[C@@H](n2ccc3c(N[C@H]4CCc5ccccc54)ncnc32)C[C@@H]1O", "system-tested": "panel of cancer cell lines", "result-type": "pEC50", "test-result": 5.82}

---

- Tested on: panel of cancer cell lines
- protocol-description: Cell viability (CellTiter-Glo) dose-response across cancer cell line panel;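 also: after 72 h compound incubation with CellTiter-Glo ATP readout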
- Assay type: cell-based, human
- condition-summary: Homo sapiens, NO36
- Experimental: Next, we explored the effect of CSN5 inhibition on the viability of cancer cells. […] A standardized CellTiter-Glo Assay (Promega #G7570) based on the quantification of ATP was applied according to the manufacturer's protocol to measure the amount of viable cells in culture. […] EC50 values were calculated from the plot of percentage of inhibition versus inhibitor concentration using the nonlinear regression analysis software Origin 7.5SR6 (OriginLab Corp.).
// reported EC50 per item
result-type: EC50 (nM)

{"compound": "NS(=O)(=O)OC[C@@H]1C[C@@H](n2ccc3c(N[C@H]4CCc5ccccc54)ncnc32)C[C@@H]1O", "result-type": "EC50", "test-result": 873}
{"compound": "COCc1ccccc1NCc1ccc([C@H]2[C@@H](O)CCCc3cncn32)c(-c2ccccc2Cl)c1", "result-type": "EC50", "test-result": 2000}

---

- System: panel of cancer cell lines
- protocol-description: Cell viability (CellTiter-Glo) dose-response across cancer cell line panel;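 also: after 72 h compound incubation with CellTiter-Glo ATP readout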
- Format: cell-based, human
- condition-summary: Homo sapiens, MKN-1, MKN1 cells
- Experimental: Next, we explored the effect of CSN5 inhibition on the viability of cancer cells. […] A standardized CellTiter-Glo Assay (Promega #G7570) based on the quantification of ATP was applied according to the manufacturer's protocol to measure the amount of viable cells in culture. […] EC50 values were calculated from the plot of percentage of inhibition versus inhibitor concentration using the nonlinear regression analysis software Origin 7.5SR6 (OriginLab Corp.).

{"compound": "COCc1ccccc1NCc1ccc([C@@H]2[C@H](O)CCCc3cncn32)c(-c2ccccc2Cl)c1", "units-label": "µM", "EC50": 9.59}

All values here come from paper PMC5078989.
